Each recorded value in this set is attributed to the supplement of paper PMC10567573.

Each record here notes measured protein stability index.
B1: RAB11B (parent)
chain: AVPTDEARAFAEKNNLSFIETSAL

variants of: B1; assay: protein stability index of a GFP-peptide fusion (GPS, HEK-293T) (PSI 1-6); higher = more stable; conditions: c terminus: a fixed tail appended;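 also: lentivirally expressed fusions sorted by FACS into six bins by GFP to DsRed ratio, PSI derived from sequencing read proportions per bin multiplied by bin number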
The reply should be a number, written without any unit.

Solved cases (8 shown):
{"columns": ["seq-text", "protein stability index"],
 "data": [
  ["WVPTDEARAFAEKNNLSFIETSAL [A1W]", 2.26],
  ["AVPGDEARAFAEKNNLSFIETSAL [T4G]", 3.17],
  ["AVITDEARAFAEKNNLSFIETSAL [P3I]", 2.63],
  ["AVPTDENRAFAEKNNLSFIETSAL [A7N]", 3.1],
  ["AVPTDEARAFAMKNNLSFIETSAL [E12M]", 1.97],
  ["AVPTDGARAFAEKNNLSFIETSAL [E6G]", 2.58],
  ["AVPTDEIRAFAEKNNLSFIETSAL [A7I]", 2.39],
  ["AVPTDEARAFAEKWNLSFIETSAL [N14W]", 2.83]
]}

Recorded protein stability index for AVPTDEARAFAEKNNLSFIEYSAL [T21Y] , please?
2

Need protein stability index, item AVPTDEARAFMEKNNLSFIETSAL [A11M]
2.8

Value lookup for protein stability index; key = AVPTDEAQAFAEKNNLSFIETSAL [R8Q]
2.45
